# TARGET_OR_SYSTEM: T1, HIV-1 Tat 37-mer peptide (tat37) (Human immunodeficiency virus 1, UniProt P69698 SEQ:1-37)
# T1 chain: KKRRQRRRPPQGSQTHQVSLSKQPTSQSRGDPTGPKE
# RUN_DESCRIPTION: EMSA; 1:1 KD; 70 mM NaCl, 4 C
# SETUP_CONDITIONS: protein: synthetic; tags: chemically synthesized peptide, RP HPLC purified (UCSF Biotechnology Resource Core); label: 32P; hairpin
MEASURED_PARAMETER: Kd

Query: So what does the record say about Kd for 5-BrU TAR 59-mer (ssRNA, 5-bromouridine) RNA: GGGUCUCUCUGGUUAGACCAGAUCUGAGCCUGGGAGCUCUCUGGCUAACUAGGGAACCC ?
Result: 40 nM
